Hey, just so you know, these numbers are from patent US9732087B2.

study_target: human H4 receptor (Homo sapiens (Human), UniProt Q9H3N8)
Sequence (Q9H3N8 whole entry): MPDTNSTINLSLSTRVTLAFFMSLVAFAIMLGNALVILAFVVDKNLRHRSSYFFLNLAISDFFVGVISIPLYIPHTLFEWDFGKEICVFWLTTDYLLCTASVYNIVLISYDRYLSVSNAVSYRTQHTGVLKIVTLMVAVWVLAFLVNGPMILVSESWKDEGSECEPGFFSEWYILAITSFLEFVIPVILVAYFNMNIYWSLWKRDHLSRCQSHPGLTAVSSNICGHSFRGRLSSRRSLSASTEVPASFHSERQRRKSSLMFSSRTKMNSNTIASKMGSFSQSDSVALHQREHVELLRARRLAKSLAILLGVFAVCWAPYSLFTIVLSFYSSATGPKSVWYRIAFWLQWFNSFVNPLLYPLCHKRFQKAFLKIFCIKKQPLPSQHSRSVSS
assay_procedure: Binding assay on recombinant human histamine H4 receptor ([3H]histamine competition, SK-N-MC cell membranes)
measurement_parameters: membranes harvested with cell harvester; [3H]histamine 10 nM; average of results; read-out: Cell Harvester Ki
Documented Ki across a set of compounds

Exercise: Check the records and state Ki for CN[C@H]1CCN(c2cnnc(NCCCO)c2)C1 [Example 403]
Solution: > 10 µM

Exercise: Please report the measured Ki for CN1CCN(c2ccnc(NCc3ccccn3)n2)CC1 [Example 62]
Solution: > 10 µM

Exercise: Please give the documented Ki of NC1CN(c2cnnc(NCc3ccccc3)c2)C1 [Example 329]
Solution: > 10 µM
